Values were extracted from patent US7202269B2.

# measurement target: human glycine transporter-2 (GlyT2) (Homo sapiens)
# Construct: The entire coding region of the human GlyT2 cDNA was cloned into the mammalian expression vector pClNeo; expressed in transfected cells; host or cells: Cos-7 cells (African green monkey kidney, ATCC), stably transfected, G418-selected; vector pClNeo
# Sequence (Q9Y345 1-797): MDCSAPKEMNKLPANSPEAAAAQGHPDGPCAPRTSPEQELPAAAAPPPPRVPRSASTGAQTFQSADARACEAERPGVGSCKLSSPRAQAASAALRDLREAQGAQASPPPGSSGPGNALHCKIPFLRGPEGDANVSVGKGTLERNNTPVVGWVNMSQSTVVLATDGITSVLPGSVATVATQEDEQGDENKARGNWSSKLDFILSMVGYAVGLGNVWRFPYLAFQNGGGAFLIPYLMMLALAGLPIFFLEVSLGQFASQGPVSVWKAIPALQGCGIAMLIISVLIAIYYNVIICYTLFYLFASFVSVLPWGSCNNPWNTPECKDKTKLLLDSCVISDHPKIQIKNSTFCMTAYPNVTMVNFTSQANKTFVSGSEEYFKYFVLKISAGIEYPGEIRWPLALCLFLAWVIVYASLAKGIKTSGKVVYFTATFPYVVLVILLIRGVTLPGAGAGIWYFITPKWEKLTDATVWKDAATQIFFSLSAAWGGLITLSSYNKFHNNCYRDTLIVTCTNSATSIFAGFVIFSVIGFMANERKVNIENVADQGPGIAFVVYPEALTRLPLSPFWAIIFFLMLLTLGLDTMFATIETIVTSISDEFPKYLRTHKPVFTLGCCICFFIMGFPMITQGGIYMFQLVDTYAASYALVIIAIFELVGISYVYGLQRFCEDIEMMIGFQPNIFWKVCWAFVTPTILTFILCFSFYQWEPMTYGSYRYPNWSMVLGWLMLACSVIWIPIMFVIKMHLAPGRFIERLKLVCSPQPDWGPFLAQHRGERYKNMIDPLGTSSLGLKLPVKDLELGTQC
# assay info: Inhibition of [14C]-glycine uptake in COS-7 cells transfected with human GlyT2
# Format: cell-based
# recorded conditions: Table 1, 20 μM, 2 h at 37° C., Cos-7 cells stably transfected with human GlyT2
pIC50: −log10 of the molar value.
readout: pIC50

Examples with answers:
N#C/N=C(\Nc1ccc(-c2ccccc2)cc1)N[C@H](CCC(=O)NCCN1CCCC1)Cc1ccccc1: 7.03
N#C/N=C(\Nc1ccc(-c2ccccc2)cc1)N[C@H](CC(=O)NCCN1CCCC1)Cc1ccccc1: 6.99

a = N#C/N=C(\Nc1ccc(-c2ccccc2)cc1)N[C@@H](Cc1ccccc1)C(=O)NCCCN1CCCC1
b = N#C/N=C(\Nc1ccc(-c2ccccc2)cc1)N[C@H](CC(=O)NCCN1CCCC1)c1ccccc1
IN: Field: lower pIC50 | Options: a / b Field: selected label. Fill in the label of the entry you choose.
OUT: b
